# Tested on: XIP peptide (Xip251-270) binding
# METHOD_DESCRIPTION: small-molecule binders of XIP peptide, primary screen, biochemical, small-molecule microarray, fluorescence 635/667 nm, 0.1 µg/mL protein (AID 1182)
# SETTINGS: fluorescent protein binding, 635 nm, higher = more signal, called active from +8 up or from −8 down
Rule: fulfilled for composite z-score not less than -0.05, not fulfilled for anything less.

Q: # check: composite z-score of `COc1ccc([Si](C)(C)[C@H]2[C@H](CC(=O)N(CCO)Cc3ccccc3)O[C@@]3(C(=O)N(c4ccccc4)c4ccccc43)[C@@H]2C)cc1` is greater than or equal to -0.05
A: not fulfilled

Q: Also, `COC(=O)[C@@]1(Cc2ccc(F)cc2)[C@H]2c3cc(C(=O)N4CCCC4)n(CCSCCO)c3C[C@H]2CN1C(=O)c1ccccc1` please.
A: fulfilled

Q: Also, `COc1ccc([Si](C)(C)[C@@H]2[C@@H](CC(=O)N3Cc4ccccc4C[C@H]3CO)O[C@]3(C(=O)N(Cc4ccc(I)cc4)c4ccccc43)[C@H]2C)cc1` please.
A: fulfilled

Q: Also, `O=C(NC1CC1)[C@@H]1c2ccccc2C(=O)N(C2CCCCC2)[C@H]1c1ccc(CO)cc1` please.
A: fulfilled

Q: Also, `C=CCOC(=O)[C@H]1[C@@H]2C(=O)O[C@@H](c3ccccc3)[C@@H](c3ccccc3)N2[C@@H](c2ccc(OCCOC(=O)[C@H]3C[C@H]4C(=O)NCC(=O)N4[C@H]3c3ccc(O)cc3)cc2)[C@]12C(=O)Nc1ccccc12` please.
A: fulfilled

Q: Also, `COC(=O)[C@@]1(Cc2ccc(F)cc2)[C@H]2c3cc(C(=O)N(C)C)n(Cc4ccc(C(F)(F)F)nc4)c3C[C@H]2CN1C(=O)c1ccccc1` please.
A: fulfilled

Q: Also, `[N-]=[N+]=NCc1ccccc1C[C@@]1(C(N)=O)N=C(c2ccc(OCCCO)cc2)O[C@@H]1c1ccccc1N=[N+]=[N-]` please.
A: fulfilled

Q: Also, `COC(=O)c1c2oc(c1C(=O)OC)C(=O)N[C@H](Cc1ccccc1)Cn1cc(nn1)C1(CCCCC1)NC(=O)N[C@H](CO)CC2` please.
A: fulfilled

Q: Also, `Cc1c(NC(=O)/C(C#N)=C/C=C/c2ccc([N+](=O)[O-])cc2)c(=O)n(-c2ccccc2)n1C` please.
A: fulfilled

Q: Also, `Cc1ccc(S(=O)(=O)N2[C@@H](c3ccccc3)C(C(=O)O)=C[C@H]2C(C)(C)C)cc1` please.
A: fulfilled

Q: Also, CC(C)N1CC=CC23O[C@@H]4/C=C\CCCOC(=O)C4[C@H]2C(=O)N(C(C)CO)[C@@H]3C1=O (stereo partly drawn) please.
A: not fulfilled

Q: Also, COc1ccc(C(O)C2C=CC3C(=O)N(c4ccccc4)C(=O)C3N2Nc2ccccc2F)c2ccccc12 (stereo not drawn) please.
A: fulfilled

Q: Also, `C=C[C@@H](CO)NS(=O)(=O)c1ccc(Br)cc1` please.
A: not fulfilled

Q: Also, `Cc1ccc(S[C@]2(C(=O)NC(C)C)CC(=O)N(Cc3ccccc3)[C@@H]2c2ccc(CO)cc2I)cc1` please.
A: fulfilled

Q: Also, `COC(=O)Cn1c(C(=O)N(C)C)cc2c1C[C@H]1CN(C(=O)c3ccccc3)[C@@](Cc3ccccc3)(C(=O)OC)[C@@H]21` please.
A: not fulfilled

Q: Also, `COC(=O)[C@@]1(Cc2ccc(F)cc2)[C@H]2c3cc(C(=O)N4CCCC4)n(Cc4ccc(OC(F)(F)F)cc4)c3C[C@H]2CN1C(=O)c1ccccc1` please.
A: fulfilled

Q: Also, `COCCOC(=O)N1C(=O)[C@@]2(c3cc(C#CCNC(N)=O)ccc31)[C@H](c1ccc(O)cc1)N1[C@H](c3ccccc3)[C@H](c3ccccc3)OC(=O)[C@H]1[C@@H]2C(=O)N1CCc2cc(OC)c(OC)cc2C1` please.
A: not fulfilled

Q: Also, `COc1ccc(CCNC(=O)[C@@H]2c3ccccc3C(=O)N(C(C)C)[C@H]2c2ccc(CO)cc2)cc1` please.
A: not fulfilled

Q: Also, `COc1ccc(-c2cc3c(c(CCc4ccccc4)n2)[Si](C(C)C)(C(C)C)O[C@H]3c2ccccc2)cn1` please.
A: not fulfilled

Q: Also, `CC[C@@H]1C=C(C(=O)O)[C@H](c2cccc(Cl)c2)N1S(=O)(=O)c1ccc(C)cc1` please.
A: fulfilled

Q: Also, `COc1ccc([Si](C)(C)[C@H]2[C@H](CC(=O)N3CCC[C@H]3CO)O[C@@]3(C(=O)N(C)c4c(Br)cc(C)cc43)[C@@H]2C)cc1` please.
A: fulfilled

Q: Also, `C=C(COC)/C(=C/C[C@@H](OC(C)=O)c1cccc(OCCO)c1)c1cnc2ccccc2c1` please.
A: fulfilled

Q: Also, `O=C1O[C@@H](c2ccccc2)[C@@H](c2ccccc2)N2[C@@H](c3ccccc3OCCO)[C@]3(C(=O)Nc4ccc(C#CC5(O)CCCCCC5)cc43)[C@@H](C(=O)N3CCCCCCC3)[C@H]12` please.
A: fulfilled

Q: Also, `COC(=O)[C@@]1(Cc2ccc(F)cc2)[C@H]2c3cc(C(=O)N(C)C)n(Cc4cccc5ccccc45)c3C[C@H]2CN1C(=O)c1ccccc1` please.
A: fulfilled

Q: Also, `CCOC(=O)C=C1C[C@@H](c2cccc([N+](=O)[O-])c2)O[C@@H](c2cccc([N+](=O)[O-])c2)O1` please.
A: fulfilled

Q: Also, CCCCN1CC=CC23O[C@@H]4C=CCCOC(=O)C4[C@H]2C(=O)N(CCO)[C@@H]3C1=O (stereo partly drawn) please.
A: fulfilled

This collection of values is drawn from PubChem BioAssay.
